assay: Selectivity index, ratio of cytotoxicity for human HeLa cells to IC50 for anti-parasitic activity against chloroquine-resistant Plasmodium falciparum W2
Assay type: toxicity, cell-based
condition label: read-out: Selectivity Index
assay endpoint: selectivity ratio
Answers are plain numbers.

Name the recorded selectivity ratio of the item `COc1ccc(/C=C/C(=O)c2ccccc2)cc1S(=O)(=O)N1CCOCC1` in your answer. 9

Reference for the values: ChEMBL document CHEMBL3611995
